assayed.system: endogenously expressed human MSR1 on PMA-treated THP-1 cells (human) (UniProt P21757)
Sequence (P21757 whole entry): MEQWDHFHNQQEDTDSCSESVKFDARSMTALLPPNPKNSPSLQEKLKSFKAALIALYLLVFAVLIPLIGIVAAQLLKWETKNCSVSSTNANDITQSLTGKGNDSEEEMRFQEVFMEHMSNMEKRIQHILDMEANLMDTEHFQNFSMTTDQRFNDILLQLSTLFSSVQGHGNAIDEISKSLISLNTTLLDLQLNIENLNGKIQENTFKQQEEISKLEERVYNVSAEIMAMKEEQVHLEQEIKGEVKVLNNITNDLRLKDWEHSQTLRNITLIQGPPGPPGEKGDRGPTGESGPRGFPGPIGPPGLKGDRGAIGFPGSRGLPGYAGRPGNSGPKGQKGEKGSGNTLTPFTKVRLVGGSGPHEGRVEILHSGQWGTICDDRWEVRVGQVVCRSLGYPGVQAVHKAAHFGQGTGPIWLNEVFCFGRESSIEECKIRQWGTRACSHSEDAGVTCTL
assay.name: ECL cell binding, PMA-treated THP-1
result.type: binding signal ratio to isotype control (11 nM) (fold)
Expressed in fold, but write only the number.

Some solved entries appear below for comparison.
INSERT INTO measurements (binder, observed_measurement) VALUES
  ('H1H21231N-N297Q (antibody, human IgG1, V domains shown) VH: EVQLVESGGGLVQPGGSLRLSCAASGFTFSDHYMDWVRQAPGKGLEWVGRTRNKANSHTTEYTASVTGRFTISRDDSRNSLYLQMNSLKTEDTAVYYCVRAGIIGTLFDYWGQGTLVTVSS VL: DIQMTQFPSSLSASVGDRVTITCRASQSISSFLNWFQQKPGKAPKFLIYAASSLQSGVPSRFSGSGSGTDFTLTISSLQPEDFATYYCQQSYSSPPITFGQGTRLEIKR', 45),
  ('H1H27754P-N297Q (antibody, human IgG1, V domains shown) VH: EVQLVESGGGLVQPGGSLRLSCAASGFTFRTYAMTWVRQAPGKGLDWVSAITGDGGNTYYADSVKGRFTISRDNSKNTLYLQMNSLRAEDTAIYYCAKDQRFSFALYYFDYWGQGTLVTVSS VL: DIQMTQSPSSVSASVGDRVTITCRASQGISSWLAWYQQKPGNAPKLLIYAAFSLQSGVPSRFSGSGSGTDFTLTISSLQPEDFATYYCQQANNFPWTFGQGTKVEIKR', 66),
  ('H1H27747P-N297Q (antibody, human IgG1, V domains shown) VH: QVQLVESGGAVVQPGRSLRLSCAASGFTFSYYGMHWVRQAPGKGLEWVAVISYDGSKKYYADSVKGRFTISRDNSKNTLYLQMNSLRAEDTAVYYCAKDLTVDFYYGMDVWGQGTTVTVSS VL: DIQMTQSPSSVSASVGDRVTITCRASQGISSWLAWYQQKPGKAPKLLIYATSSLQSGAPSRFSGSGSGTDFTLTISSLQPEDFATYFCQQANSFPYTFGQGTKLEIKR', 13);

Field binding signal ratio to isotype control (11 nM) (entry H2aM21229N (antibody, mouse IgG2a, V domains shown) VH: EVQLVESGGGLVKPGGSLRLSCAASGFTFSRYSMNWVRQAPGKGLEWVSSISSSSSYIYYGDTVKGRFTISRDNAKKSLYLQMNSLRAEDTAVYYCVRDRGQLVLYFDYWGQGTLVTVSS VL: DIQMTQSPASLSTSIRDRVTITCRASLSISSFLNWFQQRPGKAPKLLIYVASNLQSGVPSRFSDSGSGTDFTLTISSLQPEDFATYYCQQNYSTPPITFGQGTRLEIK ) reads 56

Kindly note the recorded binding signal ratio to isotype control (11 nM) for H1H27734P-N297Q (antibody, human IgG1, V domains shown) VH: EVQLVESRGGLVQPGGSLRLSCAASGFTFSSYAMSWVRQAPGKGLEWVSAISGSGGSTFYADSVKGRFTISRDNSKNTVYLQMNSLRAEDTAVYYCAKALVLRFLEWLGDYWGQGTLVTVSS VL: DIQMTQSPSTLSASVGDRVTITCRASQSISSWLAWFQQKPGKAPKLLIYKASSLESGVPSRFSGSGSGTEFTLTISSLQPDDFATYYCQQYKSYWTFGQGTKVEIKR , which is 21

Given item H1H21227N (antibody, human IgG1, V domains shown) VH: QVQLVQSGAEVKKPGASVKVSCKVSGYTLTELSIHWVRQVPGKGLEWMGGFDPEEGETIFAQEFRDRVTLTEDTSPDTAYMELSSLKSEDAAVYYCTTPRYCNNGICYDYWGQGTLVTVSS VL: DIQMTQSPSSLSASVGDRVTITCRASQSISNYLNWYQQKPGKAPKLLIYTASSLQSGVPSRFSGSGSGTDFTLTISSLQTEDFATYYCQQSYSNFPITFGQGTRLEIKR , the value recorded as its binding signal ratio to isotype control (11 nM) is 7
